- Assay Target: Plasmodium falciparum protein kinase 6 (PK6, PF3D7_1337100)
- Experiment Notes: PfPK6 kinase inhibitors, biochemical, TCAMS library (AID 1159586)
- Condition Notes: recombinant PfPK6, Kinase-Glo ATP depletion luminescence
Results with a measured potency or affinity are listed apart. The source made the active and inactive calls. No rule for the calls is given here.
Measured Property: outcome

Please review the following examples before continuing.
CCN(CCCN1CCCCC1)c1cc(C)nc(Nc2ccc(Oc3ccccc3)cc2)n1    inactive
C=CCC(C(=O)Nc1ccnc2ccc(OC)cc12)C1CCN(CCCCCCC)CC1 (stereo unspecified)    inactive
c1ccc(CCNc2nc(NCC(c3ccccc3)c3ccccc3)c3[nH]cnc3n2)cc1    inactive
COc1cc(NC(=O)c2c(-c3c(F)cccc3Cl)noc2C)c(OC)cc1Cl    inactive
N#CNC(=NCCCSc1csc(N=C(N)N)n1)NCCCCCCCCN=C(NC#N)NCCSCc1csc(N=C(N)N)n1    inactive

Field: next molecule
Task: Field request: outcome | item: COc1ccccc1COc1c(C)nc(N)nc1N
Result: inactive

----------
- Experiment Notes: HepG2 cytotoxicity, primary screen, cytotoxicity control for P. falciparum antimalarial project, cell-based, ATP luminescence (AID 2303)
- Condition Notes: HepG2 viability, 24-48 h, at 10 µM
The source made the active and inactive calls.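 The calls were made as follows: active = inhibition above 50%; inactive = the rest.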
Form entry, call: pick from T for active, F for inactive

COc1ccc2nccc([C@@H](O)CN3CCC(NCc4ccc5c(c4)NC(=O)CS5)CC3)c2c1    F

Task: Please let me know the test result on file for COc1ccc(CCN(C)CCOc2ccc(NC(=O)c3cccc4cc5ccccc5nc34)cc2)cc1OC .
Result: F

Task: Tell me the assay call for CC(C)(C)OC(=O)[C@H](CC(N)=O)NC(=O)c1ccc(-c2ccc(-c3nc4ccc(C(F)(F)F)cc4[nH]3)s2)cc1 please.
Result: T

Task: Test call, this molecule: O=C(Nc1ccc([N+](=O)[O-])cc1)Nc1cc(OCC(F)(F)F)cc(OCC(F)(F)F)c1
Result: T

----------
- Assay Target: Calcium-dependent protein kinase 1 (Plasmodium falciparum (isolate 3D7)) (UniProt P62344)
- Sequence (P62344 whole entry, looked up): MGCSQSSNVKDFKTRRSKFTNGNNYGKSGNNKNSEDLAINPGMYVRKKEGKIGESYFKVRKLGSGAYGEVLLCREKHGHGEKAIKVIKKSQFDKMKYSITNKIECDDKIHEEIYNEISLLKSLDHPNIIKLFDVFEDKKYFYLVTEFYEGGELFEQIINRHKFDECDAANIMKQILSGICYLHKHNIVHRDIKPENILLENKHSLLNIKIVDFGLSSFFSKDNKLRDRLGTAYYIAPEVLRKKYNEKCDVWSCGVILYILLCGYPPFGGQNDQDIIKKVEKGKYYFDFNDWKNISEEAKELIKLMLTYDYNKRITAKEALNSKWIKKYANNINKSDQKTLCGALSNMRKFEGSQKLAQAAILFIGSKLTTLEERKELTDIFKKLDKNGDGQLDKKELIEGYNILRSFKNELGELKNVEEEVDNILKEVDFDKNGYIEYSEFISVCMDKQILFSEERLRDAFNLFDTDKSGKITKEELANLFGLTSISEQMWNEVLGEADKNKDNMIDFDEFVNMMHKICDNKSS
- Experiment Notes: PfCDPK1 kinase inhibitors, biochemical, TCAMS library (AID 1159585);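 also: inhibitors leave more ATP so luminescence rises with inhibition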
- Condition Notes: recombinant PfCDPK1, Kinase-Glo ATP depletion luminescence
Results with a measured potency or affinity are listed apart. Active and inactive are the calls of the source. No cut-off is given here; in the data, nearly all actives have IC50 up to about 0.98 µM.
Measured Property: outcome

Cc1cc2nc(-c3ccc(C(=O)NC4CCN(Cc5ccccc5)CC4)cc3)[nH]c2cc1C    inactive
O=C(Nc1ccc(OC2CCN(Cc3ccc(F)cc3)C2)c(Cl)c1)c1cccs1 (centres undefined)    inactive
COc1ccc2c(NN=Cc3ccncc3)ccnc2c1    inactive
CC(Cc1ccc(OCCN2CCN(c3cccc(Cl)c3)CC2)cc1)NCC(O)c1cccc(Cl)c1 (centres undefined)    inactive
COc1ccc2nccc([C@@H](O)CN3CCC(NCc4cc5ccccc5s4)CC3)c2c1    inactive

Task: Record lookup: for Calcium-dependent protein kinase 1 (Plasmodium falciparum (isolate 3D7)) (UniProt P62344), what outcome belongs to CC(CCCCC(=O)Nc1ccc(CC(C)NCCc2cccc(Cl)c2)cc1)NCCc1cccc(Cl)c1 (centres undefined) ?
Result: inactive

Task: Observed outcome on Calcium-dependent protein kinase 1 (Plasmodium falciparum (isolate 3D7)) (UniProt P62344) for O=C(Nc1ccc(Cl)cc1)c1ccc(CN2CCCN(Cc3ccc(F)cc3)CC2)cc1 , please.
Result: inactive

Task: Checklist item: outcome tested on Calcium-dependent protein kinase 1 (Plasmodium falciparum (isolate 3D7)) (UniProt P62344), entry CNCCNC(=O)C1Cc2c([nH]c3c(C)cccc23)C(c2ccc(Cl)c(Cl)c2)N1 (centres undefined) , value?
Result: inactive

Task: Give Calcium-dependent protein kinase 1 (Plasmodium falciparum (isolate 3D7)) (UniProt P62344) outcome for COc1c(C2CCN(CCCCNC(=O)c3ccc(-c4ccc(Cl)cc4)cc3)CC2)ccc2c1C(C)(C)CCC2(C)C
Result: inactive

Cited source: PubChem BioAssay
